Measured % retained in plasma clot assay (with thrombin) accompanies every entry in the list below.
# subjectOfTest: human plasma clots (Homo sapiens)
# Construct: Factor XIII is transformed into its active form Factor XIIIa by thrombin in the presence of calcium ions; from tissue; host or cells: human plasma, clotted in vitro with thrombin and calcium chloride
# Sequence (P00488 39-732): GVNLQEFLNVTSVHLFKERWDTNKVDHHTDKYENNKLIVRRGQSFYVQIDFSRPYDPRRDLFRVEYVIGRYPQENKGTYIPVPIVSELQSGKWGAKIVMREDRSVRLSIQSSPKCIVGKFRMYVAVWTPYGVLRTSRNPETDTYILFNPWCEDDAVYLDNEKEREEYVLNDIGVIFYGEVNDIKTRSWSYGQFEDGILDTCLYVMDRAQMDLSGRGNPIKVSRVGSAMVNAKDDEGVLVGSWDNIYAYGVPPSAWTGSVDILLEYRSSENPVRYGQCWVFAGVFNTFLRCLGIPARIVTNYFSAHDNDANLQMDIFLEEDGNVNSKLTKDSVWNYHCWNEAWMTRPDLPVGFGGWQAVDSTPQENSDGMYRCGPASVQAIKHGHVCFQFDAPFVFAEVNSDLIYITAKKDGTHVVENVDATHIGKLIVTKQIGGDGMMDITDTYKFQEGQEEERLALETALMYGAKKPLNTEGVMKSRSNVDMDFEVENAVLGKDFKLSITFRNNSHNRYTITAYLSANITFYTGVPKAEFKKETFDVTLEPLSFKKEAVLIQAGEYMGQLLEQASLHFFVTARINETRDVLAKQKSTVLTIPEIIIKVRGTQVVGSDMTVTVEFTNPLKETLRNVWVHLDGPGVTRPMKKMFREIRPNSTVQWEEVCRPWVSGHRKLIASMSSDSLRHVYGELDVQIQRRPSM
# testMethodNotes: Incorporation into human plasma clots (in vitro plasma clot assay)
# Format: biochemical
# runConditions: human plasma with thrombin and calcium chloride, 60 minutes, ca. 20° C.
measurementType: % retained in plasma clot assay (with thrombin) (%)

>  <compound>
CC(=NO)C(C)(C)NCC(C)(CNC(=O)[C@@H](Cc1ccccc1)NC(=O)CCCCCN)CNC(C)(C)C(C)=NO (stereo partly shown)

>  <measuredResult>
6

$$$$
>  <compound>
CC(=O)SCC(=O)NCC(=O)NCC(=O)NCC(=O)NCCCNC(=O)c1ccc(S(=O)(=O)NCCCCCN)cc1

>  <measuredResult>
16

$$$$
>  <compound>
CC(=NO)C(C)(C)NCCN(CCNC(=O)C1CCC(CNC(=O)c2ccc(S(=O)(=O)NCCCCCN)cc2)CC1)CCNC(C)(C)C(C)=NO (stereo not shown)

>  <measuredResult>
17

$$$$
>  <compound>
NCCCCCNS(=O)(=O)c1ccc(C(=O)NCCCNC(=O)c2ccc(NN)nc2)cc1

>  <measuredResult>
14

$$$$
